molecular target: T1, VEGFR-1-Fc (human, UniProt P17948 27-331); test: receptor-Fc IP
T1 construct: domain: first three Ig domains; expressed in Drosophila S2 cells, purified on Protein A sepharose; also called VEGFR-1-Fc fusion protein; not shown: Fc fragment from the Signal-pIgPlus vector
T1 sequence (P17948 27-331): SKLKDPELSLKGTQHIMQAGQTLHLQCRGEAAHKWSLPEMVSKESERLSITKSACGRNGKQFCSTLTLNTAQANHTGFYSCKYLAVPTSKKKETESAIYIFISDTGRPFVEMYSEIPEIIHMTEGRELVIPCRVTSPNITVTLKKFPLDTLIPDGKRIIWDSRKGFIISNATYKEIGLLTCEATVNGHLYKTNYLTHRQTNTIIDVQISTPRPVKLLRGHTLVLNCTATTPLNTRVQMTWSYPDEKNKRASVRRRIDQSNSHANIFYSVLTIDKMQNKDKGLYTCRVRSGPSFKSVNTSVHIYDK
endpoint.name: binding result

binder	value.reported
82-13 (ligand) AHYNTEILKFMDVYQRSYCHPIETLVDIFQEFGVATNTFFKPPCVSVYRCGGCCNDEGLECVPTEESNITMQIMRITVPLSQGPKPVTISFANHTSCRCMSKLD	binds
14-9 (ligand) GQNHHEVVKFMDVYQRSYCHPIETLVDIFQEFGVATNTFFKPSCVPLMRCGGCCNDEGLECVPTEESNITMQIMRITVPLSQGPKPVTISFLQHNKCECRPKKD	binds

Source: patent US20050267024A1
